- Procedure summary: acute toxicity in rats
- Test conditions: rat, in vivo, im, intramuscular route
Endpoint: LD50

Name the recorded LD50 for NCCOP(=O)(O)OC[C@H](O)CO .
> 1500 mg/kg

###

- Procedure summary: acute toxicity in rabbits
- Test conditions: rabbit, in vivo, oral route, read-out: oral dose that did not cause either death or any symptomatology
Endpoint: NOAEL

Name the recorded NOAEL for NCCOP(=O)(O)OC[C@H](O)CO .
≥ 3000 mg/kg

###

- Procedure summary: acute toxicity in mice
- Test conditions: mouse, in vivo, oral route, read-out: oral dose that did not cause either death or any symptomatology
Endpoint: NOAEL

Name the recorded NOAEL for NCCOP(=O)(O)OC[C@H](O)CO .
≥ 3000 mg/kg

###

- Procedure summary: acute toxicity in rabbits
- Test conditions: rabbit, in vivo, im, intramuscular route
Endpoint: LD50

Name the recorded LD50 for NCCOP(=O)(O)OC[C@H](O)CO .
> 1000 mg/kg
